- Test system: MDA-MB-231 triple-negative breast cancer cells
- procedure.text: MTT cytotoxicity assay, MDA-MB-231
- Format: cell-based, human
- particulars: Homo sapiens, MDA-MB-231, MTT, mean ± SD, read-out: Cytotoxic activity IC50, MDA-MB-231
Reported IC50 values for a set of compounds
Please state the figure in µM; there is no need to write the unit.

Sample answers from the record:
COc1ccc(C(=O)NCCS(=O)(=O)N2CCOCC2)cc1 [Compound 7] ... 136
Cc1ccc(C(=O)NCCS(N)(=O)=O)cc1 [Compound 12, 4-Methyl-N-(2-sulfamoylethyl)benzamide] ... 81
O=C(NCCS(=O)(=O)N1CCOCC1)c1ccc(Cl)cc1 [Compound 6] ... 79.1
COc1ccc(NS(=O)(=O)CCNC(=O)c2ccc(C)cc2)cc1 [Compound 16] ... 15.7

Given the entry O=C(NCCS(=O)(=O)Nc1ccccc1)c1ccccc1 [Compound 1, N-(2-(N-phenylsulfamoyl)ethyl)benzamide] , what IC50 was observed with MDA-MB-231 triple-negative breast cancer cells? 140

Given the entry COc1ccc(C(=O)NCCS(N)(=O)=O)cc1 [Compound 11, 4-Methoxy-N-(2-sulfamoylethyl)benzamide] , what IC50 was observed with MDA-MB-231 triple-negative breast cancer cells? 114

Given the entry O=C(NCCS(=O)(=O)N1CCOCC1)c1ccccc1 [Compound 5, N-(2-(morpholinosulfonyl)ethyl)benzamide] , what IC50 was observed with MDA-MB-231 triple-negative breast cancer cells? 103

Given the entry NS(=O)(=O)CCNC(=O)c1ccc(Cl)cc1 [Compound 10, 4-Chloro-N-(2-sulfamoylethyl)benzamide] , what IC50 was observed with MDA-MB-231 triple-negative breast cancer cells? 77
